Values were extracted from PubChem BioAssay (NCI).

# Test system: HCT-15 colon
# assay.name: NCI-60 one-dose screen, 48 h
# experimental.setup: 10 µM unless noted
# Description: Growth inhibition of the HCT-15 human tumor cell line is measured as a screen for anti-cancer activity. Cells are grown in 96 well plates and exposed to the test compound for 48 hours. Compounds are tested at a single concentration, which is 10^-5 M for most compounds. The reported endpoint is percent growth (GI% or GIPRCNT), where numbers from 0 - 100% represent growth inhibition, and numbers from -100% - 0 represent cell death. For example, a value of 40 represents 60% growth inhibition. […]
This is part of a sample that, as a whole, favours compounds with a hit. Of some 83,000 tested, about 20% had one in any assay. Calls of active or inactive are those of the source. How the source made its calls: active means growth percent below 10; inactive means the rest.
Outcome field: choose from active, inactive

Recorded results for 3 compounds are shown here.
>>> df
                                   compound  class_name
0  CC(C)C1CCC(C)C(C2(C#N)C(N)=NC(N)=C2C#N)C1=O (stereo not given)    inactive
1       COc1ccc2c(c1)cn1c3ccc(O)cc3nc(N)c21    inactive
2  Oc1ccc(/C=N/Nc2nnc(N/N=C/c3ccc(O)cc3O)c3ccccc23)c(O)c1      active

Data request: Tell me the recorded outcome of this test for `COc1ccc2c(CCCc3ccc(Cl)cc3Cl)c3[n+](cc2c1OC)CCc1cc2c(cc1-3)OCO2` .
Data returned: inactive

Data request: // return assay outcome for `C[C@@H](Oc1cc(C(=O)Nc2ccc(C(=O)N3CCN(C)CC3)cc2)nnc1N)c1c(Cl)ccc(F)c1Cl`
Data returned: inactive

Data request: Recorded test outcome, item `Cc1ccc2oc(=O)cc(-c3cc(-c4cc5ccccc5oc4=O)nc(N)c3C#N)c2c1`
Data returned: inactive

Data request: Query: recorded result category for `CCN(CC)CCNc1ccc(N=Nc2cnc3ccccc3c2)c2ccccc12` in this test
Data returned: active

Data request: Could you check what this test reported for `COc1cc2c(cc1OCCCN1Cc3ccc(OCCCCC(=O)N4CCC(CCN5CCCC5)CC4)cc3C1)N=C(N)C21CCCC1` ?
Data returned: inactive

Data request: Recorded test call requested for `Cc1nc(N)sc1-c1ccnc(Nc2ccc(N3CCOCC3)cc2)n1`
Data returned: inactive

Data request: Fill in: this test's call for `Cn1cc(-c2ncnc3ccc(-c4cnc(Cl)c(NS(C)(=O)=O)c4)cc23)c2ccccc21` is ___
Data returned: inactive

Data request: # fetch the recorded call for O=C1CC(c2ccc3c(c2)OCO3)c2ncn(-c3ccc(Cl)cc3)c2N1 (stereo not given) here
Data returned: inactive

Data request: Could you please tell me the result logged for `CCOc1cc2ncc(C#N)c(Nc3ccc(F)c(Cl)c3)c2cc1NC(=O)/C=C/CN(C)C` in this assay?
Data returned: active

Data request: Per the records of this test, what outcome belongs to `CCN(CC)Cc1cc(Nc2cc(C(F)(F)F)c(C#N)c3nc4ccccc4n23)ccc1O` ?
Data returned: active

Data request: Dear all, I need the recorded test outcome for `O=C(COc1ccc(/C=C2\Cc3ccc(Cl)cc3C2=O)cc1)Nc1nccs1` , thank you.
Data returned: inactive

Data request: What classification did `COc1cc2c(Nc3ccc(Br)cc3F)ncnc2cc1OCC1CCN(C)CC1` end up with in this test?
Data returned: inactive

Data request: Identify the outcome logged in this assay for the compound shown: `Cn1ccnc1C(=O)/C=C/c1ccc(CC(=O)Nc2ccc(S(F)(F)(F)(F)F)cc2)cc1`
Data returned: active

Data request: What did the test return for `O=c1sn(-c2cccc3ccccc23)c(=O)n1Cc1ccccc1` ?
Data returned: inactive

Data request: Given `C[C@@H](NC(=O)c1ncnc(N)c1Cl)c1ncc(C(=O)Nc2cc(C(F)(F)F)c(Cl)cn2)s1` , state the outcome it received in this test.
Data returned: inactive

Data request: Dear all, I need the recorded test outcome for `CCOc1cccc(/C=N/NC(=O)c2ccccc2Nc2ccnc(C(F)(F)F)c2)c1O` , thank you.
Data returned: inactive

Data request: Write down the call the test reported for this compound. Item: `CN1CCN(c2nc(NCCNc3ccnc4cc(Cl)ccc34)c3ccccc3n2)CC1`
Data returned: inactive
